- experiment_notes: Cytostatic activity against wild type human CEM cells
- Type: cell-based, CCRF-CEM
- stated_conditions: wild type CEM (CCRF-CEM) cells
property_measured: CC50 (µM)
Answers are plain numbers, in µM.

Cc1cn([C@H]2C=C[C@@H](COP3(=O)OCc4cc(-c5ccc6c(c5)COP(=O)(OC[C@@H]5C=C[C@H](n7cc(C)c(=O)[nH]c7=O)O5)O6)ccc4O3)O2)c(=O)[nH]c1=O (stereo partly drawn)
115
Cc1cn([C@H]2C=C[C@@H](COP3(=O)OCc4cc(-c5cc6c(c(C(C)(C)C)c5)OP(=O)(OC[C@@H]5C=C[C@H](n7cc(C)c(=O)[nH]c7=O)O5)OC6)cc(C(C)(C)C)c4O3)O2)c(=O)[nH]c1=O (stereo partly drawn)
20
Cc1cc(-c2cc(C)c(O)c(CO)c2)cc(CO)c1O
96
CC(C)(C)c1cc(-c2cc(CO)c(O)c(C(C)(C)C)c2)cc(CO)c1O
20
Cc1cc(-c2cc(C)c3c(c2)COP(=O)(OC[C@@H]2C=C[C@H](n4cc(C)c(=O)[nH]c4=O)O2)O3)cc2c1OP(=O)(OC[C@@H]1C=C[C@H](n3cc(C)c(=O)[nH]c3=O)O1)OC2 (stereo partly drawn)
64

I would be grateful if you could share the reported CC50 for Cc1cn([C@H]2C=C[C@@H](COP3(=O)OCc4cc(-c5ccc(O)c(CO)c5)ccc4O3)O2)c(=O)[nH]c1=O (stereo partly drawn) . 82
